- System: U2OS
- EXPERIMENTAL DETAILS: Multiplex assay against U2OS
- Assay type: toxicity, cell-based
- EXPERIMENTAL PARAMETERS: human, 12 h, 1 µM, compound concentration 1 uM, replicate 2
MEASUREMENT NAME: Population Fragmented Nuclei (%)
Entry rule: numbers only, all in %.

Worked cases, answers included:
{"columns": ["COMPOUND", "STUDY TARGET", "OBSERVED"],
 "data": [
  ["Cc1csc2c(N[C@@H](C)CN3CCN(S(=O)(=O)c4ccc(Cl)c(Cl)c4)CC3)ncnc12", "U2OS", 5],
  ["Cn1cc(-c2[nH]c3cc(NC(=O)[C@H](N)C4CCCCC4)cc4c3c2C=NNC4=O)cn1", "U2OS", 13],
  ["CNc1nc(NCc2ccc(NS(C)(=O)=O)cc2Cl)cc(-c2ccccn2)n1", "U2OS", 11],
  ["Cc1nc(Nc2n[nH]c3c2CN(C(=O)N[C@H](CN(C)C)c2ccccc2)C3(C)C)c2sccc2n1", "U2OS", 10],
  ["CN(C)C(=O)/C(C#N)=C/c1ccc(-c2nc3cnc4[nH]ccc4c3n2C2CCCCC2)o1", "U2OS", 4]
]}

Inquiry: Please report the measured Population Fragmented Nuclei (%) for CC[C@H](C)C(=O)O[C@H]1C[C@@H](C)C=C2C=C[C@H](C)[C@H](CC[C@@H]3C[C@@H](O)CC(=O)O3)[C@H]21
Reply text: 22

Inquiry: Please report the measured Population Fragmented Nuclei (%) for CC(C)NCC(O)COc1ccc(CCOCC2CC2)cc1.Cl (centres undefined) [BETAXOLOL HYDROCHLORIDE]
Reply text: 2

Inquiry: Please report the measured Population Fragmented Nuclei (%) for COc1ncc(-c2ccc3nccc(-c4ccnnc4)c3c2)cc1NS(=O)(=O)c1ccc(F)cc1F
Reply text: 46

Inquiry: Please report the measured Population Fragmented Nuclei (%) for C[C@@H](NCCCc1cccc(C(F)(F)F)c1)c1cccc2ccccc12.Cl [CINACALCET HYDROCHLORIDE]
Reply text: 10
